Taken from PubChem BioAssay AID504616.

Test: detection-step artefacts after finished caspase reaction – biochemical, fluorescence, Rh110, 20 µM, artefact control for Apaf-1 activator project, confirmation (AID 504616)
Details: quenched caspase reaction, Ex480/Em540, at 20 µM
Some of the results follow.
Listing: fluorescence interference (activity change) of selected compounds
Express the result in % but write the number alone.

Examples with answers:
compound=CC(C)OCCCNC(=S)N1CCC(C(=O)c2ccc3c(c2)OCCO3)CC1 unit_abbreviation=% reported_measurement=3.57
compound="O=C(CN1C(=O)C2C3C=CC(C3)C2C1=O)NCCc1ccccc1Cl (stereo not given)" unit_abbreviation=% reported_measurement=-3.43
compound=C=CC1=C(C(=O)O)N2C(=O)[C@@H](NC(=O)/C(=N\OCC(=O)O)c3csc(N)n3)[C@H]2SC1 unit_abbreviation=% reported_measurement=11.7
compound=CC(C)N1CCC(NC(=O)Nc2ccccc2)CC1 unit_abbreviation=% reported_measurement=-6.69
compound=C=CC1=C(C(=O)O)N2C(=O)[C@@H](NC(=O)/C(=N/OCC(=O)O)c3csc(N)n3)[C@H]2SC1 unit_abbreviation=% reported_measurement=3.12
compound=CCOc1ccc(N=C2NC(=O)S/C2=C\c2ccc(O)cc2)cc1 unit_abbreviation=% reported_measurement=-1.26

[ask] So what does the record say about fluorescence interference (activity change) for `O=C(CCc1ccccc1)NNC(=O)c1ccc(Br)cc1` ?
[reply] -7.61

[ask] So what does the record say about fluorescence interference (activity change) for COc1ccc2c(c1)CCNC2Cc1ccc(OC)c(O)c1 (stereo not given) ?
[reply] -0.08

[ask] So what does the record say about fluorescence interference (activity change) for COc1cc(C2C(C#N)=C(N)Oc3n[nH]c(-c4ccccn4)c32)cc(OC)c1OC (stereo not given) ?
[reply] 14.4

[ask] So what does the record say about fluorescence interference (activity change) for `COc1ccc(OCCCC(=O)NCCc2ccccc2)cc1` ?
[reply] 3.73
